- System: B16-F10
- Measurement description: Dark toxicity against mouse B16-F10 cells assessed as reduction in cell viability incubated for 16 hrs by CCK-8 assay
- Type: cell-based
- Recorded conditions: B16-F10, 16 h
pIC50: −log10 of the molar value.
compounds and their reported pIC50

Below are worked cases with known answers.
| Structure string | pIC50 |
| --- | --- |
| COc1ccc(C2=[N+]3C(=Nc4c(-c5ccccc5)c5c(n4[B-]3(F)F)-c3ccc(OCC(=O)O)cc3CC5)C(c3ccccc3)=C2I)cc1 | < 4.30 |
| COc1ccc(C2=[N+]3C(=Nc4c(-c5ccccc5)c5c(n4[B-]3(F)F)-c3ccc(OCC(=O)N[C@@H](CC(=O)O)C(=O)O)cc3CC5)C(c3ccccc3)=C2I)cc1 | < 3.60 |
| COc1ccc2c(c1)CCc1c(-c3ccccc3)c3n(c1-2)[B-](F)(F)[N+]1=C(c2ccc(OCC(=O)N[C@@H](CC(=O)O)C(=O)O)cc2)C(I)=C(c2ccccc2)C1=N3 | < 3.60 |
| COc1ccc2c(c1)CCc1c(-c3ccccc3)c3n(c1-2)[B-](F)(F)[N+]1=C(c2ccc(OCC(=O)O)cc2)C(I)=C(c2ccccc2)C1=N3 | < 4.30 |
| COc1ccc(C2=[N+]3C(=Nc4c(-c5ccccc5)cc(-c5ccc(OC)cc5)n4[B-]3(F)F)C(c3ccccc3)=C2I)cc1 | < 4.30 |

B16-F10 data for "COc1ccc2c(c1)CCc1c(-c3ccccc3)c3n(c1-2)[B-](F)(F)[N+]1=C(c2ccc(OCC(=O)N[C@@H](CCC(=O)O)C(=O)O)cc2)C(I)=C(c2ccccc2)C1=N3" ; its pIC50: < 3.60

B16-F10 data for "COc1ccc(C2=[N+]3C(=Nc4c(-c5ccccc5)c5c(n4[B-]3(F)F)-c3ccc(OCC(=O)N[C@@H](CCC(=O)O)C(=O)O)cc3CC5)C(c3ccccc3)=C2I)cc1" ; its pIC50: < 3.60
